Data origin: patent US20200361895A1

tested.on: NLRP3 (Homo sapiens, UniProt Q96P20)
Sequence (Q96P20 whole entry): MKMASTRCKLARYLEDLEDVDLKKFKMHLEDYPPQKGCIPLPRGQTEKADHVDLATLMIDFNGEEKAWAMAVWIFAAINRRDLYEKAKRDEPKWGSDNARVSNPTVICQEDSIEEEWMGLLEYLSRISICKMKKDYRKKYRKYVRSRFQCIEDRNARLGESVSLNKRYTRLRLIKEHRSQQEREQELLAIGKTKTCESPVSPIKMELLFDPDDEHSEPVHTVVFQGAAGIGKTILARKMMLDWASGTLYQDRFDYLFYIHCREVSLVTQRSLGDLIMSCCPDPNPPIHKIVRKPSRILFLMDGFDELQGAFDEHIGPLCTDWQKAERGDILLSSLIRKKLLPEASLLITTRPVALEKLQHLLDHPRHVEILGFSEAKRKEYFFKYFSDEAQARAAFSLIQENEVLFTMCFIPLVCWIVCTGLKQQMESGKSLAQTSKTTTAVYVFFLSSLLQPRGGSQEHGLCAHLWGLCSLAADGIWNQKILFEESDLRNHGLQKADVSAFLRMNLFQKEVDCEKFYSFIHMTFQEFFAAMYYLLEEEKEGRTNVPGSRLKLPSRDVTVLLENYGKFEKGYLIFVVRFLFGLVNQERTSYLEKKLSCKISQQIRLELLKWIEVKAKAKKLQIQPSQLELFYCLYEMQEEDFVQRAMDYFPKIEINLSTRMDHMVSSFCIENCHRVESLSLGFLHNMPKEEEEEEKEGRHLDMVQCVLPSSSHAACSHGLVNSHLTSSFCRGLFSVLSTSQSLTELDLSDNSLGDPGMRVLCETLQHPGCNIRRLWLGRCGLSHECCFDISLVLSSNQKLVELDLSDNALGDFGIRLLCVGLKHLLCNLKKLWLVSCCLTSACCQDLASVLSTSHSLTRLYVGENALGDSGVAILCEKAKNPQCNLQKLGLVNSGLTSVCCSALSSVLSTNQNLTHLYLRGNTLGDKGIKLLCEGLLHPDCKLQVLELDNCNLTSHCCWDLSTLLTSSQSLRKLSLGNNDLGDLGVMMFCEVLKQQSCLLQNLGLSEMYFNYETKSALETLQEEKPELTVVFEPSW
assay.procedure: THP-1 cells pyroptosis assay (LPS + nigericin, resazurin readout; THP IC50)
Assay type: cell-based
Design: Seed THP-1 cells (25,000 cells/well) containing 1.0 μg/ml LPS in 40 μl of RPMI medium; host or cells: THP-1 cells
Structures can show the parent of a compound that is named as a salt.
Measured IC50 values are reported for all entries that follow.

Past entries and their recorded results:
- molecule: "COc1cc(-c2ccc3c(c2NC(=O)NS(=O)(=O)c2ccn(C4CCN(C)C4)n2)CCC3)ccn1 (stereo not shown) [Example 199, sodium salt]"
  IC50: "≤ 500 nM"
- molecule: "Cc1cc(-c2cc(F)cc(C(C)C)c2NC(=O)NS(=O)(=O)c2cc(CN(C)C)n(C)n2)n(C)n1 [Example 45]"
  IC50: "≤ 500 nM"
- molecule: "CC(C)c1cc(F)cc(C2CCOCC2)c1NC(=O)NS(=O)(=O)c1cc(C(=O)N(C)C)n(C)n1 [Example 30, sodium salt]"
  IC50: "≤ 5000 nM"
- molecule: "CCn1nc(S(=O)(=O)NC(=O)Nc2c(-c3ccnc(C#N)c3)cc(F)cc2C(C)C)cc1CN(C)C [Example 49]"
  IC50: "≤ 500 nM"

## Input Form field: reported IC50 of CC(C)n1ccc(S(=O)(=O)NC(=O)Nc2c(-c3ccnc(OCCN(C)C)c3)ccc3c2CCC3)n1 [Example 302, sodium salt]
## Output ≤ 5000 nM

## Input Form field: reported IC50 of COc1cc(-c2ccc3c(c2NC(=O)NS(=O)(=O)c2ccn(CC(C)(C)O)n2)CCC3)ccn1 [Example 186]
## Output ≤ 500 nM

## Input Form field: reported IC50 of CC(C)N1CC(S(=O)(=O)NC(=O)Nc2c(-c3ccncc3)cc(F)c3c2CCC3)C1 [Example 77]
## Output ≤ 500 nM
